Measured IC50 of individual entries
target: Angiotensin-converting enzyme (ACE) from rabbit lung (Oryctolagus cuniculus); construct: Angiotensin-converting enzyme (ACE) from rabbit lung (A6778); purchased Sigma-Aldrich A6778; host or cells: rabbit lung (tissue-derived enzyme); test: in vitro ACE inhibitory activity (HHL substrate); format: biochemical; conditions: mean ± SD; read-out: ACE Inhibition (IC50 μg/mL) (converted)
Sequence (P12822 34-1310): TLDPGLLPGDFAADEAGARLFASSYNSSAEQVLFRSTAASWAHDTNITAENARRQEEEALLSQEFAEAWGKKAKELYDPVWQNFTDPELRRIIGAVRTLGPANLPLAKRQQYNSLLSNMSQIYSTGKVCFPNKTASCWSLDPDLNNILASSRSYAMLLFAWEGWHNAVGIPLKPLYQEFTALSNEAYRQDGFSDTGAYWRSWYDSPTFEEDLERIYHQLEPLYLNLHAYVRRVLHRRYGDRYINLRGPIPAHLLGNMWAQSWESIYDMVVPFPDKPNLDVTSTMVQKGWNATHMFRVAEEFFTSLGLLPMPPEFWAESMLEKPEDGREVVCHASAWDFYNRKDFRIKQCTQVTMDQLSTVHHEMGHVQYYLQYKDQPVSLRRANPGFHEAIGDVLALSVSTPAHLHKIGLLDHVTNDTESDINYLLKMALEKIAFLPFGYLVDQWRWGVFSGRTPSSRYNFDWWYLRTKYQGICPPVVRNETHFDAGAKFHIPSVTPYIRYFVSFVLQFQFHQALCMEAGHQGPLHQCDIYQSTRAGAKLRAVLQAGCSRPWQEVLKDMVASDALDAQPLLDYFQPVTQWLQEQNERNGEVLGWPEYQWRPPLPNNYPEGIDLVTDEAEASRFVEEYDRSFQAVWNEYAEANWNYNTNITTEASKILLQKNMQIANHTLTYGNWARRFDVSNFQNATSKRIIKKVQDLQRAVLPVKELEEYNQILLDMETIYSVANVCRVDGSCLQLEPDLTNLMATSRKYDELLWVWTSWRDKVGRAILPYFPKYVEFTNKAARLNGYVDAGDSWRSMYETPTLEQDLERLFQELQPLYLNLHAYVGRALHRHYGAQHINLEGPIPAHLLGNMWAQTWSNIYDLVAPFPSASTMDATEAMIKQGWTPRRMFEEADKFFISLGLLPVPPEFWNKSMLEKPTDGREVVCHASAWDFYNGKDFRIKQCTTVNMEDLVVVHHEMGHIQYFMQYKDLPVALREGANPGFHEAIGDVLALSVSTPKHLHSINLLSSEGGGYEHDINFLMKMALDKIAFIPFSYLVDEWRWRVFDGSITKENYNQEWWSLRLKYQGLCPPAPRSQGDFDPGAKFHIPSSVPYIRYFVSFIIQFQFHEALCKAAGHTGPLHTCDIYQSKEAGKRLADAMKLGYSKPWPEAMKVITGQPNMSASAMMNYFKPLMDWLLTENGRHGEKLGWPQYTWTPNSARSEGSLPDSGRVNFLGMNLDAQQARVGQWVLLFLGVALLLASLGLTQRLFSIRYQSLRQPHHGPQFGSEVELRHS
Peptide text beside a SMILES is read from it.
Use µM as the unit, but write only the number.

# example entries with known answers
CC[C@H](C)[C@H](NC(=O)[C@@H](N)C(C)C)C(=O)N1CCC[C@H]1C(=O)N[C@H](C(=O)N[C@@H](CCC(=O)O)C(=O)N1CCC[C@H]1C(=O)N1CCC[C@H]1C(=O)N[C@@H](Cc1c[nH]cn1)C(=O)O)[C@@H](C)O [VIPTEPPH] (H-VIPTEPPH-OH); 91.1
CC[C@H](C)[C@H](NC(=O)[C@@H](N)C(C)C)C(=O)N1CCC[C@H]1C(=O)N[C@H](C(=O)N[C@@H](CCC(=O)O)C(=O)N1CCC[C@H]1C(=O)N1CCC[C@H]1C(=O)N[C@@H](Cc1c[nH]cn1)C(=O)N[C@@H](C)C(=O)O)[C@@H](C)O [VIPTEPPHA] (H-VIPTEPPHA-OH); 123

Ask: Identify IC50 associated with the compound CC[C@H](C)[C@H](NC(=O)[C@@H](NC(=O)[C@@H](N)C(C)C)C(C)C)C(=O)N1CCC[C@H]1C(=O)N[C@H](C(=O)N[C@@H](CCC(=O)O)C(=O)N1CCC[C@H]1C(=O)N1CCC[C@H]1C(=O)N[C@@H](Cc1c[nH]cn1)C(=O)O)[C@@H](C)O [VVIPTEPPH] (H-VVIPTEPPH-OH)
Result: 43.5

Ask: Identify IC50 associated with the compound CC[C@H](C)[C@H](NC(=O)[C@@H](NC(=O)[C@@H](N)C(C)C)C(C)C)C(=O)N1CCC[C@H]1C(=O)N[C@H](C(=O)N[C@@H](CCC(=O)O)C(=O)N1CCC[C@H]1C(=O)N1CCC[C@H]1C(=O)N[C@@H](Cc1c[nH]cn1)C(=O)N[C@@H](C)C(=O)O)[C@@H](C)O [VVIPTEPPHA] (H-VVIPTEPPHA-OH)
Result: 50
